All values here come from patent US7790721B2.

- test.system: PARP-1 (Homo sapiens)
- Construct: purchased Trevigen (Gaithersburg, Md.); host or cells: E. coli
- Sequence (P09874 whole entry): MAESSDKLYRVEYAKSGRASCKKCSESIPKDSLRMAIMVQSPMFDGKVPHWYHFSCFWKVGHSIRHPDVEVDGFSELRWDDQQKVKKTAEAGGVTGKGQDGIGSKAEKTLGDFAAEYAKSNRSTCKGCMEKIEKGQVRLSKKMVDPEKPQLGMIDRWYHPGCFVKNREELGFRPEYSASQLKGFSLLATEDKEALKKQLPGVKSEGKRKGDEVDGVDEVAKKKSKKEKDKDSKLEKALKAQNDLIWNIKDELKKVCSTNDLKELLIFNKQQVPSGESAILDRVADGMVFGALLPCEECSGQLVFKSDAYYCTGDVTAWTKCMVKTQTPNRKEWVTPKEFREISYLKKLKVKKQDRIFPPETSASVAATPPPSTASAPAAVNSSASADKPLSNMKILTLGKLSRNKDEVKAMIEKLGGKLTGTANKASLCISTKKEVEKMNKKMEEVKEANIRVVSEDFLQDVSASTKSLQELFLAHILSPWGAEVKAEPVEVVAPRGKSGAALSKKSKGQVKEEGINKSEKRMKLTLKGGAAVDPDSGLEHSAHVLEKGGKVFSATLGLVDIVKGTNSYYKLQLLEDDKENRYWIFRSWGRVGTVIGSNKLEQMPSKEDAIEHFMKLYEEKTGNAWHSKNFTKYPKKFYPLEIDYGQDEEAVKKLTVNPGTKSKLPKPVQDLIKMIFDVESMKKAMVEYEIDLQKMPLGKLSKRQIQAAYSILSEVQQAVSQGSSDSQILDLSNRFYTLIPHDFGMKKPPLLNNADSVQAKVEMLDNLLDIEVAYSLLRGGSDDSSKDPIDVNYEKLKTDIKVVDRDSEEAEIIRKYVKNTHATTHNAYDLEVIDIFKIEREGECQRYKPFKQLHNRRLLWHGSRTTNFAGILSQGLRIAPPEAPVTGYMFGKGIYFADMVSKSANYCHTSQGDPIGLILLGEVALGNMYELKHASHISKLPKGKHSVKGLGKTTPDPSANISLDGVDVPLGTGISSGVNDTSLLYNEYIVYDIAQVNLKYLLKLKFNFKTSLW
- measurement.protocol: PARP1 assay (inhibition of PARP, [3H]-NAD+ / biotinylated histone H1, FlashPlate scintillation)
- Format: biochemical
- details: recombinant human PARP, 1 nM enzyme, 1.5 μM [3H]-NAD+; inhibition curves at various substrate concentrations; read-out: PARP-1 (Ki)
pKi: −log10 of the molar value.
measured.endpoint: pKi

Past entries and their recorded results:
CN(C)Cc1ccc2c(c1)[nH]c(=O)c1nccn12; 6.28
CN(C)C1CCC(NCc2ccc3c(c2)[nH]c(=O)c2cccn23)CC1 (stereo not shown); 6.79
O=C(NCCCN1CCOCC1)c1ccc2c(c1)[nH]c(=O)c1cccn12; 6.68
CN(C)C(=O)c1ccc2c(c1)[nH]c(=O)c1cccn12; 6.21
CN(Cc1ccccc1)Cc1ccc2c(c1)NC(=O)C1CCCN21 (stereo not shown); 5.87

a. O=C(Nc1ccc(N2CCN(Cc3ccccc3)CC2)cc1)c1ccc2c(c1)[nH]c(=O)c1cccn12
b. O=c1[nH]c2ccc(CNCc3ccccc3)cc2n2cccc12
For the two items a and b , which reports the higher pKi value? Give the label under which the chosen entry appears.
a
